These entries and their values trace back to patent US20120316144A1.

Form field: diameter of antiproliferative circle, Average (one value per entry).
- System: Malassezia
- EXPERIMENT_NOTES: Antifungal (Malassezia) paper disk test of fractionated ingredients of mastic normal-hexane extract with squalene
- Assay type: cell-based
- CONDITION_DESCRIPTION: Malassezia; Mueller-Hinton media; fraction 5 mg/disk + squalene 25 mg/disk; average of two runs
Give your result in mm as a bare value.

Some solved cases for reference:
Given item CC1(C)C=C2C(=CC[C@]3(C)C2CC[C@@H]2[C@@]4(C)CCC(=O)C(C)(C)[C@@H]4CC[C@]23C)CC1 (stereo partly shown) , the value recorded as its diameter of antiproliferative circle, Average is 23.5

Given item CC(C)=CCC[C@](C)(O)[C@H]1CC[C@]2(C)C1CCC1[C@@]3(C)CCC(=O)C(C)(C)[C@@H]3CC[C@]12C (stereo partly shown) [Fr. 8, 3-oxo-20-hydroxy-dammar-24-ene] , the value recorded as its diameter of antiproliferative circle, Average is 24.5

Given item CC1(C)CC[C@]2(C=O)CC[C@]3(C)C(=CC[C@@H]4[C@@]5(C)CCC(=O)C(C)(C)[C@@H]5CC[C@]43C)C2C1 (stereo partly shown) , the value recorded as its diameter of antiproliferative circle, Average is 25

Consider the record given below.
Given item CC1(C)CCC2(O)CC[C@]3(C)C(=CC[C@@H]4[C@@]5(C)CCC(=O)C(C)(C)[C@@H]5CC[C@]43C)C2C1 (stereo partly shown) [Fr. 6, 3-oxo-17-hydroxy-norolean-12-ene] , the value recorded as its diameter of antiproliferative circle, Average is 20
